In this section, each of the compounds is paired with its reported MIC.
test system: S. epidermidis ATCC 35984; experiment: Broth microdilution MIC/MBC; type: cell-based; conditions: Staphylococcus epidermidis, ATCC35984, 24 h, S. epidermidis ATCC 35984, 24 h at 37° C.
Field note: include the unit after the figure.

[
  {
    "compound": "CCCCCCCCCCn1cc[n+](C)c1.[Cl-] [C10MIMCl, 1-decyl-3-methylimidazolium chloride]",
    "target-of-assay": "S. epidermidis ATCC 35984",
    "MIC": "40 µM"
  },
  {
    "compound": "CCCCCCCCCCCCn1cc[n+](C)c1.[Cl-] [C12MIMCl, 1-dodecyl-3-methylimidazolium chloride]",
    "target-of-assay": "S. epidermidis ATCC 35984",
    "MIC": "36 µM"
  },
  {
    "compound": "CCCCCCCCCCCCCCn1cc[n+](C)c1.[Cl-]",
    "target-of-assay": "S. epidermidis ATCC 35984",
    "MIC": "7.7 µM"
  }
]

Could you now consider this next compound?
[Q] Consider the compound shown here: CCCCCCCCCCCCCC[n+]1ccc2ccccc2c1.[Br-] [IL4, N-tetradecylisoquinolinium bromide] What is its recorded MIC?
[A] 7.9 µM

Attribution: patent US20110144079A1
